test system: Histophilus somni; experiment: minimum inhibitory concentration (MIC); conditions: isolate (source animal id): 233
Let's look at some molecules and their measured minimum inhibitory concentration.

Q: Look at this molecule and give its reported minimum inhibitory concentration. CC1(C)S[C@@H]2[C@H](NC(=O)[C@H](N)c3ccccc3)C(=O)N2[C@H]1C(=O)O [Ampicillin]
A: ≤ 0.25 µg/mL

Q: Look at this molecule and give its reported minimum inhibitory concentration. NC[C@@H]1O[C@H](O[C@H]2[C@@H](O)[C@H](O[C@@H]3[C@@H](O)[C@H](N)C[C@H](N)[C@H]3O[C@H]3O[C@H](CN)[C@@H](O)[C@H](O)[C@H]3N)O[C@@H]2CO)[C@H](N)[C@@H](O)[C@@H]1O [Neomycin]
A: > 32 µg/mL

Q: Look at this molecule and give its reported minimum inhibitory concentration. CS(=O)(=O)c1ccc([C@@H](O)[C@@H](CF)NC(=O)C(Cl)Cl)cc1 [Florfenicol]
A: 1 µg/mL

Q: Look at this molecule and give its reported minimum inhibitory concentration. CC1(C)S[C@@H]2[C@H](NC(=O)Cc3ccccc3)C(=O)N2[C@H]1C(=O)O [Penicillin]
A: ≤ 0.12 µg/mL

Next:
Q: Look at this molecule and give its reported minimum inhibitory concentration. CN(C)[C@@H]1C(O)=C(C(N)=O)C(=O)[C@@]2(O)C(O)=C3C(=O)c4c(O)cccc4[C@@](C)(O)[C@H]3C[C@@H]12 [Tetracycline]
A: > 8 µg/mL

Q: Look at this molecule and give its reported minimum inhibitory concentration. COc1cc(Cc2cnc(N)nc2N)cc(OC)c1OC.Cc1cc(NS(=O)(=O)c2ccc(N)cc2)no1 [trimethoprim-sulfamethoxazole]
A: > 2 µg/mL

Q: Look at this molecule and give its reported minimum inhibitory concentration. COc1cc(NS(=O)(=O)c2ccc(N)cc2)nc(OC)n1 [sulfadimethoxine]
A: > 256 µg/mL

Q: Look at this molecule and give its reported minimum inhibitory concentration. CC[C@H]1OC(=O)C[C@@H](O)[C@H](C)[C@@H](O[C@@H]2O[C@H](C)[C@@H](O[C@H]3C[C@@](C)(O)[C@@H](O)[C@H](C)O3)[C@H](N(C)C)[C@H]2O)[C@@H](CC=O)C[C@@H](C)C(=O)/C=C/C(C)=C/[C@@H]1CO[C@@H]1O[C@H](C)[C@@H](O)[C@@H](OC)[C@H]1OC [Tylosin]
A: 16 µg/mL

====

system: Escherichia coli; experiment: minimum inhibitory concentration (MIC); conditions: isolate (source animal id): 178
Let's look at some compounds and their measured minimum inhibitory concentration.

Worked cases, minimum inhibitory concentration given:
Q: Look up minimum inhibitory concentration with Escherichia coli for this compound: "CN[C@@H]1[C@H](O)[C@H](NC)[C@H]2O[C@@]3(O)C(=O)C[C@@H](C)O[C@H]3O[C@@H]2[C@H]1O"
A: 16 µg/mL

Q: Look up minimum inhibitory concentration with Escherichia coli for this compound: "CS(=O)(=O)c1ccc([C@@H](O)[C@@H](CF)NC(=O)C(Cl)Cl)cc1"
A: > 8 µg/mL

Q: Look up minimum inhibitory concentration with Escherichia coli for this compound: "C=C[C@]1(C)C[C@@H](OC(=O)CSCCN(CC)CC)[C@]2(C)[C@H](C)CC[C@]3(CCC(=O)[C@H]32)[C@@H](C)[C@@H]1O"
A: > 32 µg/mL

Next:
Q: Look up minimum inhibitory concentration with Escherichia coli for this compound: "CN(C)[C@@H]1C(O)=C(C(N)=O)C(=O)[C@@]2(O)C(O)=C3C(=O)c4c(O)cccc4[C@@](C)(O)[C@H]3C[C@@H]12"
A: > 8 µg/mL

Q: Look up minimum inhibitory concentration with Escherichia coli for this compound: "CCC[C@@H]1C[C@@H](C(=O)N[C@@H]([C@H]2O[C@H](SC)[C@H](O)[C@@H](O)[C@H]2O)[C@H](C)Cl)N(C)C1"
A: > 16 µg/mL

====

test system: Mannheimia haemolytica; assay: minimum inhibitory concentration (MIC); conditions: isolate (source animal id): 123
attribute.measured: minimum inhibitory concentration

Worked cases, minimum inhibitory concentration given:
Q: Look at this compound and give its reported minimum inhibitory concentration. CN(C)[C@@H]1C(O)=C(C(N)=O)C(=O)[C@@]2(O)C(O)=C3C(=O)c4c(O)cccc4[C@@](C)(O)[C@H]3C[C@@H]12 [Tetracycline]
A: > 8 µg/mL

Q: Look at this compound and give its reported minimum inhibitory concentration. COc1cc(Cc2cnc(N)nc2N)cc(OC)c1OC.Cc1cc(NS(=O)(=O)c2ccc(N)cc2)no1 [trimethoprim-sulfamethoxazole]
A: ≤ 2 µg/mL

Next:
Q: Look at this compound and give its reported minimum inhibitory concentration. CC1(C)S[C@@H]2[C@H](NC(=O)[C@H](N)c3ccccc3)C(=O)N2[C@H]1C(=O)O [Ampicillin]
A: 0.5 µg/mL

Q: Look at this compound and give its reported minimum inhibitory concentration. CC[C@H]1OC(=O)C[C@@H](O)[C@H](C)[C@@H](O[C@@H]2O[C@H](C)[C@@H](O)[C@H](N(C)C)[C@H]2O)[C@@H](CCN2C[C@H](C)C[C@H](C)C2)C[C@@H](C)C(=O)/C=C/C(C)=C/[C@@H]1CO[C@@H]1O[C@H](C)[C@@H](O)[C@@H](OC)[C@H]1OC [Tilmicosin]
A: > 16 µg/mL

Q: Look at this compound and give its reported minimum inhibitory concentration. CC1(C)S[C@@H]2[C@H](NC(=O)Cc3ccccc3)C(=O)N2[C@H]1C(=O)O [Penicillin]
A: 1 µg/mL

====

Let's look at some molecules and their measured minimum inhibitory concentration.
test system: Pasteurella multocida; test: minimum inhibitory concentration (MIC); details: isolate (source animal id): 234
Provide the reading as a plain figure in µg/mL.

Q: Look up minimum inhibitory concentration with Pasteurella multocida for this molecule: CS(=O)(=O)c1ccc([C@@H](O)[C@@H](CF)NC(=O)C(Cl)Cl)cc1 [Florfenicol]
A: 8

Next:
Q: Look up minimum inhibitory concentration with Pasteurella multocida for this molecule: CN[C@@H]1[C@H](O)[C@H](NC)[C@H]2O[C@@]3(O)C(=O)C[C@@H](C)O[C@H]3O[C@@H]2[C@H]1O [Spectinomycin]
A: 32

====

system: Mannheimia haemolytica; experiment: minimum inhibitory concentration (MIC); details: isolate (source animal id): 51
Let's look at some compounds and their measured minimum inhibitory concentration.
Provide the reading as a plain figure in µg/mL.

Worked cases, minimum inhibitory concentration given:
Q: Look at this compound and give its reported minimum inhibitory concentration. CCN1CCN(c2cc3c(cc2F)c(=O)c(C(=O)O)cn3C2CC2)CC1 [Enrofloxacin]
A: 0.5

Q: Look at this compound and give its reported minimum inhibitory concentration. CN(C)[C@@H]1C(O)=C(C(N)=O)C(=O)[C@@]2(O)C(O)=C3C(=O)c4c(O)cccc4[C@@](C)(O)[C@H]3C[C@@H]12 [Tetracycline]
A: 8

Q: Look at this compound and give its reported minimum inhibitory concentration. CN[C@@H]1[C@H](O)[C@H](NC)[C@H]2O[C@@]3(O)C(=O)C[C@@H](C)O[C@H]3O[C@@H]2[C@H]1O [Spectinomycin]
A: 32

Q: Look at this compound and give its reported minimum inhibitory concentration. CN1C[C@@H]2C[C@H]1CN2c1cc2c(cc1F)c(=O)c(C(=O)O)cn2C1CC1 [Danofloxacin]
A: 0.5

Q: Look at this compound and give its reported minimum inhibitory concentration. CCC[C@@H]1C[C@@H](C(=O)N[C@@H]([C@H]2O[C@H](SC)[C@H](O)[C@@H](O)[C@H]2O)[C@H](C)Cl)N(C)C1 [Clindamycin]
A: 16

Next:
Q: Look at this compound and give its reported minimum inhibitory concentration. C=C[C@]1(C)C[C@@H](OC(=O)CSCCN(CC)CC)[C@]2(C)[C@H](C)CC[C@]3(CCC(=O)[C@H]32)[C@@H](C)[C@@H]1O [Tiamulin]
A: 8

====

test system: Mannheimia haemolytica; assay: minimum inhibitory concentration (MIC); details: isolate (source animal id): 201
attribute.measured: minimum inhibitory concentration (µg/mL)
Provide the reading as a plain figure in µg/mL.

Q: Look up minimum inhibitory concentration with Mannheimia haemolytica for this compound: CN[C@@H]1[C@H](O)[C@H](NC)[C@H]2O[C@@]3(O)C(=O)C[C@@H](C)O[C@H]3O[C@@H]2[C@H]1O [Spectinomycin]
A: 32

Q: Look up minimum inhibitory concentration with Mannheimia haemolytica for this compound: CC[C@H]1OC(=O)C[C@@H](O)[C@H](C)[C@@H](O[C@@H]2O[C@H](C)[C@@H](O)[C@H](N(C)C)[C@H]2O)[C@@H](CCN2C[C@H](C)C[C@H](C)C2)C[C@@H](C)C(=O)/C=C/C(C)=C/[C@@H]1CO[C@@H]1O[C@H](C)[C@@H](O)[C@@H](OC)[C@H]1OC [Tilmicosin]
A: 16

====

test system: Enterococcus spp.; experiment: minimum inhibitory concentration (MIC); details: isolate (source animal id): 187
Let's look at some compounds and their measured minimum inhibitory concentration.

Worked cases, minimum inhibitory concentration given:
Q: Look at this compound and give its reported minimum inhibitory concentration. "CN(C)[C@@H]1C(O)=C(C(N)=O)C(=O)[C@@]2(O)C(O)=C3C(=O)c4c(O)cccc4[C@@](C)(O)[C@H]3C[C@@H]12"
A: > 8 µg/mL

Q: Look at this compound and give its reported minimum inhibitory concentration. "CN[C@@H]1[C@H](O)[C@H](NC)[C@H]2O[C@@]3(O)C(=O)C[C@@H](C)O[C@H]3O[C@@H]2[C@H]1O"
A: 64 µg/mL

Q: Look at this compound and give its reported minimum inhibitory concentration. "NC[C@@H]1O[C@H](O[C@H]2[C@@H](O)[C@H](O[C@@H]3[C@@H](O)[C@H](N)C[C@H](N)[C@H]3O[C@H]3O[C@H](CN)[C@@H](O)[C@H](O)[C@H]3N)O[C@@H]2CO)[C@H](N)[C@@H](O)[C@@H]1O"
A: 16 µg/mL

Next:
Q: Look at this compound and give its reported minimum inhibitory concentration. "C=C[C@]1(C)C[C@@H](OC(=O)CSCCN(CC)CC)[C@]2(C)[C@H](C)CC[C@]3(CCC(=O)[C@H]32)[C@@H](C)[C@@H]1O"
A: 1 µg/mL
